Target: T1, UNK ZnF1-3 (human, UniProt Q9C0B0 31-174)
T1 sequence: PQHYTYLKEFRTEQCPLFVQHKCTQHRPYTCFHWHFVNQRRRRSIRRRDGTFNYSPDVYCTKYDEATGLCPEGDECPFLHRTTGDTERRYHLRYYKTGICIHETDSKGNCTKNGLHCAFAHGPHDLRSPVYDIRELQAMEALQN
Assay: nsRBNS (natural sequence RNA bind-n-seq); RBNS binding buffer (assumed for nsRBNS): 25 mM Tris pH 7.5, 150 mM KCl, 3 mM MgCl2, 0.01% Triton X-100, 500 ug/ml BSA, 20 U/ml SUPERase-In, 4 C; UNK is unkempt and MSI1 is Musashi-1; names of the RNAs are library labels; protein concentration not given here; high values mean tight binding
In all, about 24,000 sequences were measured (“enrichment r”: median about 0.99, highest 2% from about 3.7 on). The full list was thinned out, with the highest values kept by preference.
As shown below, each of these binders has a reported binding signal value.
Value expressed in enrichment R; do not type the unit.

{"BINDER": "chr1:32661602:32661603:+_ENSG00000084652_ENST00000373610|hu_hu|FALSE|FALSE (ssRNA) RNA: GGGAGUUCUACAGUCCGACGAUCCAGCAUCCCUCUUCCUUGGAAGGUCCUCAAUACAAACACUGUCAUGUGCAAAAAAAAAAGAAAAAGAAAAAAAAAAAAAAAGAAAAAGAAAUAAAGAAAAAAACACCUUCAGAAAUAAUCCAACAGAGGAUUGAGCAUCA", "UNIT LABEL": "enrichment R", "binding signal": 4.33}

What the record says about chr1:109605425:109605426:-_ENSG00000197780_ENST00000461096|hu_mus|FALSE|FALSE (ssRNA) RNA: GGGAGUUCUACAGUCCGACGAUCUUUAAUCAACUCUCCGUUCUCACAAUUAAAGUACUUACAUUUCCGUCACUAGAGCACAGCCAGAAACACCUGGGCUGGCAUCGGCUCUUUAAGCCCUGCCGUUCCCACUACUGAGGCAUUCAACAGAGGAUUGAGCAUCA : binding signal is 0.922

What the record says about chr5:143665338:143665339:-_ENSMUSG00000029580_ENSMUST00000100497|mus_hu|FALSE|FALSE (ssRNA) RNA: GGGAGUUCUACAGUCCGACGAUCCACCUUCACCGUUCCAGUUUUUAAAUCCUGAGUCAAGCCAAAAAAAAAAAAAAAACCAAAACAAAACAAAAAAAACAAAUAAAGCCAUGCCAAUCUCAUCUUGUUUUCUGCGCAAGUUAGCAACAGAGGAUUGAGCAUCA : binding signal is 2.75
